target: Mu-type opioid receptor (Rattus norvegicus, UniProt P33535)
Sequence (P33535 whole entry): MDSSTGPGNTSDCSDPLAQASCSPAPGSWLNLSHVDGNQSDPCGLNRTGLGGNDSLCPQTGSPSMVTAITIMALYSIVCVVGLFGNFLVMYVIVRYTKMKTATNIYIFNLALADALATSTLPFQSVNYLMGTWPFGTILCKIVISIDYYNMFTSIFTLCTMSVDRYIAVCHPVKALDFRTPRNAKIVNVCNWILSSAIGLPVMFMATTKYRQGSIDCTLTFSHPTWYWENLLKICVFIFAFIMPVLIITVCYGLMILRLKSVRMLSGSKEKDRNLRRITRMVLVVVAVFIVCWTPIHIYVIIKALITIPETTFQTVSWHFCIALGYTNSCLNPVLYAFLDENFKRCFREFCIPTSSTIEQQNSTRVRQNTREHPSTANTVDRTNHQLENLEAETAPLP
Where a SMILES comes first, the peptide text is derived from it. [ ]: non-standard residue; d: D form. The star is where a group is joined. Dmt = Cc1cc(O)cc(C)c1C[C@H](N)C(=O)O; NHPh = c1ccc(N*)cc1
// reported log10 of Ki for each item listed
Please note: log10 values; quantity Ki; unit nM.

# count of solved cases: 4
N[C@@H](Cc1ccc(O)cc1)C(=O)N1CCC[C@H]1C(=O)N[C@@H](Cc1ccccc1)C(=O)Nc1cccnc1 ... 1.69
Cc1cc(O)cc(C)c1C[C@H](N)C(=O)N1CCC[C@H]1C(=O)N[C@@H](Cc1ccccc1)C(=O)Nc1cccc2cccnc12 ... -0.31
N[C@@H](Cc1ccc(O)cc1)C(=O)N1CCC[C@H]1C(=O)N[C@@H](Cc1ccccc1)C(=O)Nc1ccc2ncccc2c1 ... 1.86
N[C@@H](Cc1ccc(O)cc1)C(=O)N1CCC[C@H]1C(=O)N[C@@H](Cc1ccccc1)C(=O)NC12C[C@H]3C[C@@H](C1)C[C@@H](C2)C3 ... 1.37

Query (compound): Cc1cc(O)cc(C)c1C[C@H](N)C(=O)N1CCC[C@H]1C(=O)N[C@@H](Cc1ccccc1)C(=O)Nc1ccncc1 ; field requested: log10 of Ki
-0.44

Query (compound): Cc1cc(O)cc(C)c1C[C@H](N)C(=O)N1CCC[C@H]1C(=O)N[C@@H](Cc1ccccc1)C(=O)Nc1ccccc1 (H-[Dmt]-Pro-Phe-NHPh) ; field requested: log10 of Ki
0.05

Query (compound): Cc1cc(O)cc(C)c1C[C@H](N)C(=O)N1CCC[C@H]1C(=O)N[C@@H](Cc1ccccc1)C(=O)N[C@@H](Cc1ccccc1)C(N)=O ; field requested: log10 of Ki
-0.82

Taken from ChEMBL document CHEMBL1148353.
